Each item that follows carries a reported IC50.
Tested on: PC3 cells
Test: In vitro cell viability (cell kill) assay, CCK8
Type: cell-based, human
Details: Table 11, 3 days
Don't forget the unit after the value.

As a guide, the following entries are already answered.
- molecule: "H1H6960N-DM1 (conjugate) VH: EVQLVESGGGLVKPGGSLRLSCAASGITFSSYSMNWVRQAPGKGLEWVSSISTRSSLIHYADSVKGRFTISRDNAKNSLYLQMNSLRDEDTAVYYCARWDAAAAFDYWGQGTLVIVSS VL: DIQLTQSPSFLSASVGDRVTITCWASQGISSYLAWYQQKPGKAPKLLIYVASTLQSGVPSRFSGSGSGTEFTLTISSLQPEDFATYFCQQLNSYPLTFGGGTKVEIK"
  test_value: "150 nM"
- molecule: "H1H6765P-DM1: anti-PRLR antibody H1H6765P conjugated to DM1 through an SMCC linker (conjugate) VH: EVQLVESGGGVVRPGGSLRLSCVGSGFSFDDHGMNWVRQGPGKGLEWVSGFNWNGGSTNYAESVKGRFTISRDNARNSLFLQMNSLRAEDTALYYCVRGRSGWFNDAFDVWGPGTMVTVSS VL: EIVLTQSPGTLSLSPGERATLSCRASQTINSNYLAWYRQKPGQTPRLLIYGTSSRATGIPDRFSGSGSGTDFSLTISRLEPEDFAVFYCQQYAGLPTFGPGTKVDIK"
  test_value: "200 nM"

Input line: IC50 lookup needed for H1H6762P-DM1 (conjugate) VH: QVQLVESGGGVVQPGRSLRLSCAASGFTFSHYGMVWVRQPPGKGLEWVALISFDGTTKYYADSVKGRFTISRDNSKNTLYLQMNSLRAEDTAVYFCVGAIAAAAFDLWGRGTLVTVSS VL: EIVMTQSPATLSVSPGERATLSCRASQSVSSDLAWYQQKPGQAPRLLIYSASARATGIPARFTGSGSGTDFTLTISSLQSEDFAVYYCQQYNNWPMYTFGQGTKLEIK , thanks.
Output line: 250 nM
